- assayed-target: full length spike (S) protein of SARS-CoV-2 (SARS-CoV-2, UniProt P0DTC2 14-1273)
- method-notes: cell-based or functional assay
Provide the recorded Neutralizing activity (%) Mean at 1.851852 µg/ml for the entries that follow.
The figure you give is taken to be in %; do not add the unit.

The reported value for P2A-1A8 (antibody, V domains shown) VH: EVQLVESGGDLVQPGRSLRLSCAASGFAFDDYAMHWVRQAPGKGLEWVSGSTWNSGTIAYADSVKGRFTISRDNAKKSLYLQMNSLRTEDTALYYCAKLGGYSDYDYPRPGDHYYGLDVWGQGTTVTVSS VL: QSALTQPASVSGSPGQSITISCTGTSSDVGSYNLVSWYQQHPGKVPKLLIYDVNKRPSGISNRFSGSKSGNTASLTISGLQAEDEADYYCRSYTDSNTYVFGTGTKVTVLG in terms of Neutralizing activity (%) Mean at 1.851852 µg/ml is 26.7

The reported value for P2A-1B3 (antibody, V domains shown) VH: EVQLVESGGGLVQPGGSLRLSCVASGFSFNRYSMNWLRQTPRKGLEWLSYISASGNTIYYADSVRGRFTTSRDNAKNTLYLQMNSLRDDDTAVYFCARPAMVREGTYNWFDPWGQGTLVTVSS VL: EIVLTQSPGTLSLSPGERATLSCRASQSVSNDYLAWYQQKPGQAPRLLIYYASSRATGIPDRFSGSGSGTDFTLTISRLEPGDSAVYYCQQYGDSPPITFGQGTRLEIKR in terms of Neutralizing activity (%) Mean at 1.851852 µg/ml is 22.1

The reported value for P2B-2F6 (antibody, V domains shown) VH: QVQLQESGPGLVKPSETLSLTCTVSGYSISSGYYWGWIRQPPGKGLEWIGSIYHSGSTYYNPSLKTRVTISVDTSKNQFSLKLSSVTAADTAVYYCARAVVGIVVVPAAGRRAFDIWGQGTMVTVSS VL: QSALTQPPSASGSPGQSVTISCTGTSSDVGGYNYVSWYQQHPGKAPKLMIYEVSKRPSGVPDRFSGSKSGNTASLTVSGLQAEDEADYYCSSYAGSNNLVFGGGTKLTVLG in terms of Neutralizing activity (%) Mean at 1.851852 µg/ml is 89

// provenance: patent US20210292392A1
